Catalogue of compounds with associated IC50
biological target: Human EGF receptor tyrosine kinase (Homo sapiens, UniProt P00533); construct: Human EGF receptor tyrosine kinase was isolated from A431 human epidermoid carcinoma cells which overexpress EGF receptor; endogenous in cells; host or cells: A431 human epidermoid carcinoma cells; purified on wheat germ agglutinin sepharose; test: EGF receptor tyrosine kinase inhibition (phosphorylation of PLC-gamma 1 derived peptide); format: biochemical
Sequence (P00533 25-1210): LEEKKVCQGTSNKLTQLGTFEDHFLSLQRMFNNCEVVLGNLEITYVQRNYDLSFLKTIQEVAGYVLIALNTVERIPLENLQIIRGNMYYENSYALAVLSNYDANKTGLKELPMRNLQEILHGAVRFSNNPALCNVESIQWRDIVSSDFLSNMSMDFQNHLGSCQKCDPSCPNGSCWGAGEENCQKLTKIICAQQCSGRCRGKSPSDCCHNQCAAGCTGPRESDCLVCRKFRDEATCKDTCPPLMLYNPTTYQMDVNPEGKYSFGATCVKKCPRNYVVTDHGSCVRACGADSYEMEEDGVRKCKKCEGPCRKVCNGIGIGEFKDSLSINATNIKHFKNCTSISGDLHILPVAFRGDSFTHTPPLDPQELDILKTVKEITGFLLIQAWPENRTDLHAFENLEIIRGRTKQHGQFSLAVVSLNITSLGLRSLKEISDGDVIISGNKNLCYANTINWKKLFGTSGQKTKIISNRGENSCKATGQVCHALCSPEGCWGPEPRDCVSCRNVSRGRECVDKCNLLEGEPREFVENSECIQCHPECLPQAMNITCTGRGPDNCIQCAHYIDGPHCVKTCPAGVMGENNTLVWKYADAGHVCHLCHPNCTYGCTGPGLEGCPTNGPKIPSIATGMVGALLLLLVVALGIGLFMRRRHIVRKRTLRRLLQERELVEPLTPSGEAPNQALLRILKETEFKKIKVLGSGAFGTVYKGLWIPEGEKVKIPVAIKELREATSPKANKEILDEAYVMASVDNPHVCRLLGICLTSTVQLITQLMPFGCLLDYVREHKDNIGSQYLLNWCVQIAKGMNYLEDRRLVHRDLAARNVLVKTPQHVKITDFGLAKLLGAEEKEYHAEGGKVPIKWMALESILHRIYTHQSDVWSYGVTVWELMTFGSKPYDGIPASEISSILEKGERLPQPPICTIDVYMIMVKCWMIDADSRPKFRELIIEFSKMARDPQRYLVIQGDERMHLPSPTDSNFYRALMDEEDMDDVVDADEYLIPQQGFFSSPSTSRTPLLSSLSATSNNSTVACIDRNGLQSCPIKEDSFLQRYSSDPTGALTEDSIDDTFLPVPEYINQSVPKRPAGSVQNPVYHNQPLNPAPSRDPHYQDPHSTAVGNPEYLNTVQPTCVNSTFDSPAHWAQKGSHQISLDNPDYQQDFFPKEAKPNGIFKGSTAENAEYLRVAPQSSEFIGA
Numeric only. Scale: nM

Example entries begin here.
GET /value?item= COc1ccc2[nH]c3ncnc(Nc4cccc(Br)c4)c3c2c1 &field=IC50 returns 220

GET /value?item= Brc1cccc(Nc2ncnc3cc4[nH]ccc4cc23)c1 &field=IC50 returns 0.76

GET /value?item= Brc1cccc(Nc2ncnc3c2oc2ccccc23)c1 &field=IC50 returns 740

Alright, here's another compound for you.
GET /value?item= Brc1cccc(Nc2ncnc3c2sc2ncccc23)c1 &field=IC50 returns 732

###

molecular target: Human EGF receptor tyrosine kinase (Homo sapiens); construct: Human EGF receptor tyrosine kinase was isolated from A431 human epidermoid carcinoma cells which overexpress EGF receptor; endogenous in cells; host or cells: A431 human epidermoid carcinoma cells; purified on wheat germ agglutinin sepharose; experiment: EGF receptor tyrosine kinase inhibition (phosphorylation of PLC-gamma 1 derived peptide); assay type: biochemical; settings: EGF Receptor Tyrosine Kinase Inhibition, Table 1, values in pM; read-out: IC50 in EGFR
readoutName: IC50 (pM)
Numeric only. Scale: pM

GET /value?item= Brc1cccc(Nc2ncnc3cc4ncoc4cc23)c1 &field=IC50 returns 75
